# protocolDetails: Plasma protein binding by equilibrium dialysis
# Type: in vitro ADME
# details: both sexes, pooled plasma, pH 7.4, human plasma protein binding, read-out: PPB
Consider the following molecules and their measured fraction unbound at 4 h, 10 μM readings.

Worked examples, 6 molecules total:
CCN(C(=O)[C@@H]1[C@@H](Cc2ccnc(N)c2)C(=O)N1C(=O)N[C@@H](C1CCCCC1)C(F)(F)F)c1ccccc1 < 0.05
CN(C(=O)[C@@H]1[C@@H](Cc2ccnc(N)c2)C(=O)N1C(=O)N[C@@H](C1CC1)C(F)(F)F)c1ncccn1 0.1 to 0.5
CC[C@@H](NC(=O)N1C(=O)[C@H](Cc2ccnc(N)c2)[C@H]1C(=O)N(C)c1ncccn1)c1cccc(Cl)c1 0.05 to 0.09
CN(C(=O)[C@@H]1[C@@H](Cc2ccnc(N)c2)C(=O)N1C(=O)N[C@@H](C1CCCCC1)C1CC1)c1ccncc1 0.05 to 0.09
CC[C@@H](NC(=O)N1C(=O)[C@H](Cc2ccnc(N)c2)[C@H]1C(=O)N(C)c1ccncc1)c1cccnc1 < 0.5
CC[C@@H](NC(=O)N1C(=O)[C@H](Cc2ccnc(N)c2)[C@H]1C(=O)N(C)c1ccncc1)c1cccc(Cl)c1 < 0.05

Quote fraction unbound at 4 h, 10 μM reported for `CC[C@@H](NC(=O)N1C(=O)[C@H](Cc2ccnc(NC(=O)OC(C)(C)C)c2)[C@H]1C(=O)N(C)c1ccncc1)c1cccc(Cl)c1` please. < 0.05

Quote fraction unbound at 4 h, 10 μM reported for `CN(C(=O)[C@@H]1[C@@H](Cc2ccnc(N)c2)C(=O)N1C(=O)N[C@@H](C1CCCCC1)C(F)(F)F)c1ncccn1` please. < 0.05
